target-or-system: gastrin receptor (Rattus norvegicus, UniProt P30553)
Construct: The stomach was excised and flushed with ca. 1 ml of unbuffered physiological saline solution; from tissue; host or cells: isolated whole stomach of immature rats (ca. 21 days old)
Sequence (P30553 whole entry): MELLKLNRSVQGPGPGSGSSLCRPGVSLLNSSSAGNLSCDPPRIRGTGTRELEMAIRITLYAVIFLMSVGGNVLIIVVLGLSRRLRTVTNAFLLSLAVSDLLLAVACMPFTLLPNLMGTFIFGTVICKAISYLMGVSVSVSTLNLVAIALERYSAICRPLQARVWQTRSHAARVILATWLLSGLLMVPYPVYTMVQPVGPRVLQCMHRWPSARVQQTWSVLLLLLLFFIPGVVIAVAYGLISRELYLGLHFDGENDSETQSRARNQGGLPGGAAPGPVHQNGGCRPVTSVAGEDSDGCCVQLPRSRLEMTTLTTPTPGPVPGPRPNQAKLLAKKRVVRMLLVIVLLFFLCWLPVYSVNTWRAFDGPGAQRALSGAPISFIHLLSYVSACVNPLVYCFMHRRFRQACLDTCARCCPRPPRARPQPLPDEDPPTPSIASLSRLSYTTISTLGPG
test-details: gastrin antagonist activity in immature rat stomach assay (pentagastrin dose-response, acid secretion)
condition-label: isolated immature rat stomach, cumulative pentagastrin dose-response curves, read-out: Gastrin pKb (converted)
test-readout: Kb (µM)

Answered examples (2):
{"molecule": "O=C(O)c1cccc(NC(=O)c2nc(-c3c(F)cccc3F)[nH]c2CCC23CC4CC(CC(C4)C2)C3)c1", "test-readout": "Kb", "units-of-measure": "µM", "value": 0.0316}
{"molecule": "Cc1ccc(NC(=O)c2nc(C3C4CCC3CC4)[nH]c2COC23CC4CC(CC(C4)C2)C3)cc1C(=O)O (stereo not shown)", "test-readout": "Kb", "units-of-measure": "µM", "value": 0.00302}

P. Cc1ccc(NC(=O)c2[nH]c(C3(C)CCCCC3)nc2CCC23CC4CC(CC(C4)C2)C3)cc1C(=O)O
Q. O=C(O)c1cccc(OC(=O)c2nc(C3CCCCC3)[nH]c2CCC23CC4CC(CC(C4)C2)C3)c1
(Q) // task: argmin of Kb over [ P , Q ] Write down the label of the entry you select.
(A) P

----------
target-or-system: gastrin receptor (Rattus norvegicus)
Construct: The stomach was excised and flushed with ca. 1 ml of unbuffered physiological saline solution; from tissue; host or cells: isolated whole stomach of immature rats (ca. 21 days old)
test-details: gastrin antagonist activity in immature rat stomach assay (pentagastrin dose-response, acid secretion)
condition-label: isolated immature rat stomach, cumulative pentagastrin dose-response curves, read-out: Gastrin pKb (converted)
test-readout: Kb (nM)

a. O=C(O)c1cccc(NC(=O)c2nc(-c3ccccc3Br)[nH]c2CCC23CC4CC(CC(C4)C2)C3)c1
b. O=C(O)c1cccc(NC(=O)c2nc(C3CCCCC3)[nH]c2CCCC23CC4CC(CC(C4)C2)C3)c1
(Q) // task: argmin of Kb over [ a , b ] Write down the label of the entry you select.
(A) b

----------
target-or-system: gastrin receptor (Rattus norvegicus, UniProt P30553)
Construct: The stomach was excised and flushed with ca. 1 ml of unbuffered physiological saline solution; from tissue; host or cells: isolated whole stomach of immature rats (ca. 21 days old)
test-details: gastrin antagonist activity in immature rat stomach assay (pentagastrin dose-response, acid secretion)
condition-label: isolated immature rat stomach, cumulative pentagastrin dose-response curves, read-out: Gastrin pKb (converted)
Description: The compounds of the examples were also tested for gastrin antagonist activity in an immature rat stomach assay. The procedure was as follows: […] After 120 min of stabilisation the drugs were added directly to the serosal solution in the organ bath and after a further 60 min cumulative pentagastrin dose-response curves were started. Changes in acid secretion were monitored and the curves analysed according to Black et al., Br. J. Pharmacol., 1985, 86, 581.
test-readout: Kb (nM)

Answered examples (3):
{"molecule": "O=C(O)c1cccc(NC(=O)c2nc([C@H]3CC4C=C[C@@H]3C4)[nH]c2COC23CC4CC(CC(C4)C2)C3)c1", "target-or-system": "gastrin receptor (Rattus norvegicus, UniProt P30553)", "Kb (nM)": 3.02}
{"molecule": "Cc1ccc(NC(=O)c2nc(-c3cccc(Cl)c3Cl)[nH]c2CCC23CC4CC(CC(C4)C2)C3)cc1C(=O)O", "target-or-system": "gastrin receptor (Rattus norvegicus, UniProt P30553)", "Kb (nM)": 646}
{"molecule": "O=C(O)c1cccc(NC(=O)c2nc(C34C=CC(CC3)CC4)[nH]c2COC23CC4CC(CC(C4)C2)C3)c1", "target-or-system": "gastrin receptor (Rattus norvegicus, UniProt P30553)", "Kb (nM)": 0.661}

P. Cc1ccccc1-c1nc(NC(=O)c2cccc(C(=O)O)c2)c(CCC23CC4CC(CC(C4)C2)C3)[nH]1
Q. O=C(O)c1cccc(NC(=O)c2nc(C3CC4CCC3C4)[nH]c2CCC23CC4CC(CC(C4)C2)C3)c1 (racemic) [Example 114]
(Q) // task: argmin of Kb over [ P , Q ] Write down the label of the entry you select.
(A) Q

A. O=C(Nc1cccc(S(=O)(=O)O)c1)c1nc(C2CCCCC2)[nH]c1CCC12CC3CC(CC(C3)C1)C2
B. O=C(O)c1cccc(NC(=O)c2nc(C3CC4C=CC3C4)[nH]c2CCC23CC4CC(CC(C4)C2)C3)c1 (racemic) [Example 117]
(Q) Choose between A and B : whose measured Kb value is numerically larger? Write down the label of the entry you select.
(A) A
